These entries and their values trace back to patent US20240360154A1.

Provide the reported pIC50 of each item.
Target: BTK (C481S) (Homo sapiens (Human), UniProt Q06187, C481S)
Sequence (Q06187 whole entry C481S): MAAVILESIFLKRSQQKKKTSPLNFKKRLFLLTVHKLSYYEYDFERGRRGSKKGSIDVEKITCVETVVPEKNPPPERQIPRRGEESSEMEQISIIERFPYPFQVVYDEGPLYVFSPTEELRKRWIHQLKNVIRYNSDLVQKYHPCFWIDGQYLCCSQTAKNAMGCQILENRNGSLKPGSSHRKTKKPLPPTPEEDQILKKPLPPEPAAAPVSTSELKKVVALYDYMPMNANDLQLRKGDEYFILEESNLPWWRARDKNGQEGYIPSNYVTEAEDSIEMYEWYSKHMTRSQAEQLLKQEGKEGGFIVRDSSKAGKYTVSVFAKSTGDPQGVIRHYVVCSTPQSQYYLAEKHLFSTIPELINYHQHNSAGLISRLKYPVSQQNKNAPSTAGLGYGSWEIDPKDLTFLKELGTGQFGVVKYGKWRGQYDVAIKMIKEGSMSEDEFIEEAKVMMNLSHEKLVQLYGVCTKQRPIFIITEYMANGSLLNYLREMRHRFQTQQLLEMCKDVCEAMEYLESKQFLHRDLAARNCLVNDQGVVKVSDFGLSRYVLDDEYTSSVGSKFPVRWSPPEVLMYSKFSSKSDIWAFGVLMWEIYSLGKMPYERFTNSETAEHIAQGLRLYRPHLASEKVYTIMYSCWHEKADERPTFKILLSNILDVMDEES
Assay: BTK C481S enzyme experiment (ADP-Glo kinase assay)
Settings: 10 nM BTK C481S, ATP 125 μM, Poly(Glu4, Tyr1), 90 minutes at 20° C.
Description: A 3-fold gradient concentration stock solution of 1000× compound was prepared using DMSO and diluted 100-fold to 10× compound stock solution using reaction buffer (50 mM HEPES, pH 7.5, 0.0015% Briji-35, 2 mM DTT, 10 mM MgCl2), and the 10× compound stock solution was transferred to a 384-well plate. […] Finally, the kinase activity was detected according to the experimental steps provided by ADP-Glo™ kinase Assay Kit (Promega, #V9101), and finally the luminescence chemiluminescence value was read. […]
Give bare numbers, as −log10 of the molar value.

| molecule | pIC50 |
| --- | --- |
| O=C(c1ccc(Oc2ccccc2)cc1Cl)c1c[nH]c2ncc3c(c12)N[C@@]1(CC[C@@H](O)C1)C(=O)N3 (single isomer, unassigned) | 8.08 |
| [2H]C([2H])([2H])OC[C@]1(C)Nc2c(cnc3[nH]cc(C(=O)c4ccc(Oc5ncccc5F)cc4Cl)c23)NC1=O | 7.88 |
| [2H]C([2H])([2H])[C@@]1(COC)Nc2c(cnc3[nH]cc(C(=O)c4ccc(Oc5ccccc5)cc4Cl)c23)NC1=O | 7.88 |
| O=C(c1ccc(Oc2ccccc2)cc1Cl)c1c[nH]c2ncc3c(c12)N[C@]1(CC[C@H](O)C1)C(=O)N3 (single isomer, unassigned) [Z24-2] | 8.33 |
| COCC1(C)Nc2c(cnc3[nH]cc(C(=O)c4ccc(Oc5cc(C6CC6)ccn5)cc4Cl)c23)NC1=O (single isomer, unassigned) [Z73-1] | 7.53 |

Return reported pIC50 values for all items listed beneath this line.
1. COCCN1C(=O)[C@](C)(COC)Nc2c1cnc1[nH]cc(C(=O)c3ccc(Oc4ccccc4)cc3Cl)c21
2. [2H]C([2H])([2H])OC[C@]1(C)Nc2c(cnc3[nH]cc(C(=O)c4ccc(Cn5nccc5C)cc4Cl)c23)NC1=O
3. COCC1(C)Nc2c(cnc3[nH]cc(C(=O)c4ccc(Oc5ccccc5)cc4Cl)c23)N(C)C1=O (single isomer, unassigned) [Z52-2]
4. COC1CCC2(C1)Nc1c(cnc3[nH]cc(C(=O)c4ccc(Oc5cc(C)ccn5)cc4Cl)c13)NC2=O (centres unmarked)
5. COCC1(C)Nc2c(cnc3[nH]cc(C(=O)c4ccc(Oc5cc(C)ccn5)cc4Cl)c23)NC1=O (single isomer, unassigned) [Z64-1]
6. COC1CCC2(C1)Nc1c(cnc3[nH]cc(C(=O)c4ccc(Oc5ccccc5)cc4Cl)c13)NC2=O (single isomer, unassigned) [Z25-2]

[7.71, 7.12, 7.03, 7.87, 7.97, 8.06]
